Parameter Bliss excess: see the listing below.
Test system: NCI-H3118 (Head and Neck Carcinoma);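 further: after 72 h of two-drug dosing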
EXPERIMENT NOTES: Bliss excess, mean over the matrix (fraction); higher = more synergy
Keep the answer to the number alone.

COc1cccc(OCCCN)c1-c1cc(Nc2cnc(C#N)cn2)n[nH]1 [Prexasertib] + C=CCn1c(=O)c2cnc(Nc3ccc(N4CCN(C)CC4)cc3)nc2n1-c1cccc(C(C)(C)O)n1 [AZD1775] (first compound max 1 µM, partner max 1 µM)	0.0483

Please look at NC1(C(=O)N[C@@H](CCO)c2ccc(Cl)cc2)CCN(c2ncnc3[nH]ccc23)CC1 [Capivasertib] + CC(C)n1c(=O)n(C)c2cnc3cc(F)c(-c4ccc(OCCCN5CCCCC5)nc4)cc3c21 [AZD1390] (first compound max 10 µM, 7x7, partner max 0.3 µM) and tell me its recorded Bliss excess on NCI-H3118 (Head and Neck Carcinoma). -0.0572

Please look at CN(CCO)CC[C@H](CSc1ccccc1)Nc1ccc(S(=O)(=O)NC(=O)c2ccc(N3CCC([C@@H](O)c4ccccc4-c4ccc(Cl)cc4)CC3)cc2)cc1S(=O)(=O)C(F)(F)F [AZD4320] + C[C@@H](Nc1cc(F)cc(F)c1)c1cc(C(=O)N(C)C)cc2c(=O)cc(N3CCOCC3)oc12 [AZD8186] (first compound max 1 µM, 7x7, partner max 3 µM) and tell me its recorded Bliss excess on NCI-H3118 (Head and Neck Carcinoma). 0.0019
